These entries and their values trace back to paper PMC8041433.

TARGET SYSTEM: AChE in SH-SY5Y spheroids (Homo sapiens)
MEASUREMENT DESCRIPTION: cell-based
CONDITIONS USED: potency (IC50), SH-SY5Y spheroids (48 h)
Structures can show the parent of a compound that is named as a salt.
OBSERVATION TYPE: pIC50
In plain terms, pIC50 is the concentration in mol/L turned into minus its base-10 logarithm.

{"columns": ["COMPOUND", "pIC50"],
 "data": [
  ["CCOP(=O)(Sc1ccccc1)Sc1ccccc1", 5.68],
  ["O=C(c1ccc(OCCN2CCCCC2)cc1)c1c(-c2ccc(O)cc2)sc2cc(O)ccc12 [Raloxifene hydrochloride, reference compound]", 5.38],
  ["CNC(=O)Oc1ccccc1C(C)C", 4.90],
  ["CCOP(=S)(OCC)Oc1cc(-c2ccccc2)on1", 4.75],
  ["CCN1CCCC1CNC(=O)c1cc(S(=O)(=O)CC)c(N)cc1OC (stereo not drawn) [Amisulpride, reference compound]", 4.54]
]}

Qu. Please indicate pIC50 recorded for `CNC(=O)O/N=C(\SC)C(=O)N(C)C`
Ans. 5.52

Qu. Input `CCOP(=S)(OCC)Oc1ccc2c(C)c(Cl)c(=O)oc2c1` , output reported pIC50.
Ans. 4.69

Qu. Please list pIC50 recorded for the compound `O=C(O)/C=C/C(=O)O.O=C1c2ccccc2C(=O)N1CCc1noc(-c2ccc(CN3CCCCCC3)s2)n1`
Ans. 4.84

Qu. Provide one value: measured pIC50 of `CCOP(=S)(OCC)SCn1c(=O)oc2cc(Cl)ccc21`
Ans. 4.30

---

TARGET SYSTEM: recombinant human AChE (Homo sapiens)
MEASUREMENT DESCRIPTION: biochemical
Counter-ions that a name gives are not always drawn.
Use IC50 to assign classes; range list: LOW: < 5 µM; MEDIUM: ≥ 5 µM and < 20 µM; HIGH: ≥ 20 µM

{"columns": ["COMPOUND", "DISCRETE LABEL"],
 "data": [
  ["CCOP(=S)(OCC)O/N=C(\\C#N)c1ccccc1", "HIGH"],
  ["CNC(=O)ON=C(CSC)C(C)(C)C", "LOW"]
]}

Qu. Any idea which band `Cc1nc(N(C)C)nc(OC(=O)N(C)C)c1C` is in?
Ans. MEDIUM

Qu. Class label required: O=C(c1ccc(OCCN2CCCCC2)cc1)c1c(-c2ccc(O)cc2)sc2cc(O)ccc12 [Raloxifene hydrochloride, reference compound]
Ans. LOW

Qu. Class for COP(=S)(Oc1cc(Cl)c(Br)cc1Cl)c1ccccc1 (stereo not drawn) ?
Ans. HIGH

Qu. Textbook exercise: identify the category of the compound given here, CCOC(=O)CC(SP(=O)(OC)OC)C(=O)OCC (stereo not drawn) , according to its measured value.
Ans. LOW

Qu. Class? Entry: `Cc1cc(OC(=O)N(C)C)nn1C(=O)N(C)C`
Ans. MEDIUM

---

TARGET SYSTEM: recombinant human AChE (Homo sapiens)
MEASUREMENT DESCRIPTION: biochemical
OBSERVATION TYPE: pIC50
Reminder that pIC50 means the negative base-10 logarithm of the concentration expressed in mol/L.

{"columns": ["MOLECULE", "OBSERVATION TYPE", "OBSERVED RESULT"],
 "data": [
  ["COP(=O)(OC)SCn1c(=O)oc2cc(Cl)cnc21", "pIC50", 5.42],
  ["COc1ccc(C(=O)NCc2ccc(OCCN(C)C)cc2)cc1OC.Cl [Itopride hydrochloride, reference compound]", "pIC50", 4.65],
  ["CNC(=O)Oc1ccccc1C(C)C", "pIC50", 5.04],
  ["CC/N=c1\\cc2oc3cc(NCC)c(C)cc3c(-c3ccccc3C(=O)OCC)c-2cc1C", "pIC50", 4.39],
  ["CS/C(C)=N\\OC(=O)N(C)SN(C)C(=O)O/N=C(\\C)SC", "pIC50", 5.40],
  ["O=c1[nH]c2ccc([S+]([O-])CCN3CCC(Cc4ccc(F)cc4)CC3)cc2o1 (centres unmarked) [Besonprodil, reference compound]", "pIC50", 4.79],
  ["CCN(CC)CCOc1ccc2c(c1)C(=O)c1cc(OCCN(CC)CC)ccc1-2 [Tilorone, reference compound]", "pIC50", 5.26],
  ["CCCSP(=O)(OCC)Oc1ccc(Br)cc1Cl (centres unmarked)", "pIC50", 5.28]
]}

Okay, now this molecule:
Qu. In one line, give reported pIC50 of the entry `CNC(=O)Oc1cccc2c1OC(C)(C)O2` .
Ans. 6.04

---

TARGET SYSTEM: recombinant human AChE (Homo sapiens, UniProt P22303)
Sequence (P22303 32-614): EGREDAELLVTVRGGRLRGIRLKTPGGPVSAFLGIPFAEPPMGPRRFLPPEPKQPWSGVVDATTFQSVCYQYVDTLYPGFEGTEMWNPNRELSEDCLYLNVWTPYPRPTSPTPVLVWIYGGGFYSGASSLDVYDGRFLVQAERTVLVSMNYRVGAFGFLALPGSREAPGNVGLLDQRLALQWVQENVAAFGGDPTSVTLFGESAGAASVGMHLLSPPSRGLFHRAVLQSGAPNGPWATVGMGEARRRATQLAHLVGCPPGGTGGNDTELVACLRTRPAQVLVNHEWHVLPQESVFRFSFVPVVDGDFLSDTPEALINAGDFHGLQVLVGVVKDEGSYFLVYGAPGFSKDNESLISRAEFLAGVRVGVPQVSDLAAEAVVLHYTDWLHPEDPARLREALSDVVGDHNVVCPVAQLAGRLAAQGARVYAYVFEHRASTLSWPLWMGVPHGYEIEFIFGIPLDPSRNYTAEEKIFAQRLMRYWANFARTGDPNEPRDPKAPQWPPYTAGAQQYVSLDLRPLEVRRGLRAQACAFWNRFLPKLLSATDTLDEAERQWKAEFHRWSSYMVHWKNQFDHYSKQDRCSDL
Counter-ions that a name gives are not always drawn.
OBSERVATION TYPE: Efficacy
Form rule: numeric answer, no unit written next to it.

{"columns": ["COMPOUND", "Efficacy"],
 "data": [
  ["COc1ccc2c(c1OC)CN1CCc3cc4c(cc3[C@@H]1C2)OCO4", -45.32],
  ["CN1C[C@H](C(=O)N[C@]2(C)O[C@@]3(O)[C@@H]4CCCN4C(=O)[C@H](Cc4ccccc4)N3C2=O)C=C2c3cccc4[nH]cc(c34)C[C@H]21 [Ergotamine D-tartrate]", 0],
  ["O=S1OC[C@@H]2[C@H](CO1)[C@]1(Cl)C(Cl)=C(Cl)[C@@]2(Cl)C1(Cl)Cl (some centres unmarked) [Endosulfan I]", -117.846],
  ["CCN(CC)C(=O)[C@@H]1C=C2c3cccc4[nH]cc(c34)C[C@H]2N(C)C1 [Lysergide]", -29.643],
  ["CCOP(=O)(Sc1ccccc1)Sc1ccccc1", -113.282]
]}

Qu. Give Efficacy for the following compound: CN1CCCC(n2nc(Cc3ccc(Cl)cc3)c3ccccc3c2=O)CC1 (centres unmarked) [Azelastine hydrochloride]
Ans. 0

Qu. Could you please provide reported Efficacy for Cc1nccn1CC1CCc2c(c3ccccc3n2C)C1=O (centres unmarked) ? Thanks!
Ans. 0

Qu. Please give the documented Efficacy of CC(=O)Oc1cc(C(C)C)c(OCCN(C)C)cc1C [Moxisylyte hydrochloride, reference compound]
Ans. -32.666

---

TARGET SYSTEM: AChE in neural stem cells (Homo sapiens)
MEASUREMENT DESCRIPTION: cell-based
OBSERVATION TYPE: IC50
# output: numeric value plus its unit

Reference set, count: 3
{"columns": ["COMPOUND", "TARGET SYSTEM", "IC50"],
 "data": [
  ["Cl.Clc1cc(Cl)c2c(c1)N=C1CCCCCN1C2 [PharmaGSID_47259]", "AChE in neural stem cells (Homo sapiens)", "10.7 µM"],
  ["CNC(=O)O/N=C/C(C)(C)[S+](C)[O-] (stereo not shown) [Aldicarb sulfoxide]", "AChE in neural stem cells (Homo sapiens)", "0.34 µM"],
  ["Cc1cc(OC(=O)N(C)C)nn1C(=O)N(C)C [Dimetilan]", "AChE in neural stem cells (Homo sapiens)", "4.45 µM"]
]}

# input for lookup
Qu. Provide measured IC50 value, entry: [H]/N=C(\N/C(=N/[H])NCCCCCCNC(=N)NC(=N)Nc1ccc(Cl)cc1)Nc1ccc(Cl)cc1 [Chlorhexidine diacetate, reference compound]
Ans. 32.5 µM

---

TARGET SYSTEM: recombinant human AChE (Homo sapiens)
OBSERVATION TYPE: CC-v2 (curve classes)
Give only the figure.

{"columns": ["COMPOUND", "CC-v2 (curve classes)"],
 "data": [
  ["O=C(O)/C=C\\C(=O)O.O=C(O)/C=C\\C(=O)O.c1cc(CN2CCCCC2)cc(OCCCNc2nc3ccccc3s2)c1 [Zolantidine dimaleate]", 4],
  ["CCOP(=S)(OCC)Oc1cc(C)nc(N(CC)CC)n1 [Pirimiphos-ethyl]", 4],
  ["C[C@H]1[C@@H]2Cc3ccc(O)cc3[C@@]1(C)CCN2C.C[C@H]1[C@@H]2Cc3ccc(O)cc3[C@@]1(C)CCN2C.O=C(O)/C=C/C(=O)O [(+)-Metazocine fumarate (2:1)]", -2.1],
  ["Cc1ccc2c(c1)OCC(=O)CO2 [7-Methyl-2H-1,5-benzodioxepin-3(4H)-one]", 4]
]}

Qu. Give reported CC-v2 (curve classes) value for Cc1nc2n(c(=O)c1CCN1CCC(C(=O)c3ccc(F)cc3)CC1)CCS2 [Setoperone, reference compound]
Ans. 4

Qu. Please indicate CC-v2 (curve classes) recorded for CCOP(=O)(OCC)Oc1nc(Cl)c(Cl)cc1Cl [Chlorpyrifos oxon, reference compound]
Ans. -1.1

Qu. // Input: O=C(O)CC[N+](=O)[O-] [3-Nitropropionic acid] . Output its CC-v2 (curve classes) only.
Ans. -2.2

---

TARGET SYSTEM: AChE in SH-SY5Y spheroids (Homo sapiens)
MEASUREMENT DESCRIPTION: cell-based
CONDITIONS USED: potency (IC50), SH-SY5Y spheroids (24 h)
Counter-ions that a name gives are not always drawn.
OBSERVATION TYPE: log10(IC50) (log10 of the value in µM)
Please be aware that the numbers have been log10-transformed from IC50 in µM.

Would you please look over these solved cases?
{"columns": ["MOLECULE", "TARGET SYSTEM", "OBSERVATION TYPE", "OBSERVED RESULT"],
 "data": [
  ["CCOP(=S)(OCC)O/N=C(\\C#N)c1ccccc1 [Phoxim]", "AChE in SH-SY5Y spheroids (Homo sapiens)", "log10(IC50)", 1.12],
  ["CC(=O)Oc1cc(C(C)C)c(OCCN(C)C)cc1C [Moxisylyte hydrochloride, reference compound]", "AChE in SH-SY5Y spheroids (Homo sapiens)", "log10(IC50)", 1.16],
  ["CCOP(=O)(Sc1ccccc1)Sc1ccccc1 [Edifenphos]", "AChE in SH-SY5Y spheroids (Homo sapiens)", "log10(IC50)", 0.68]
]}

Qu. State log10(IC50) (AChE in SH-SY5Y spheroids (Homo sapiens)) of CCOP(=S)(OCC)Oc1ccc2c(C)c(Cl)c(=O)oc2c1 [Coumaphos] .
Ans. 1.43

Qu. Name the recorded log10(IC50) of CCN1CCC2(CC1)COc1cc3c(cc12)N(C(=O)c1ccc(-c2ccc(-c4nnc(C)o4)cc2C)cc1)CC3.Cl [SB236057A] , assay system AChE in SH-SY5Y spheroids (Homo sapiens).
Ans. 1.44

Qu. Please respond with reported log10(IC50) (system AChE in SH-SY5Y spheroids (Homo sapiens)) for CNC(=O)Oc1ccc(N(C)C)c(C)c1 [Aminocarb] .
Ans. 1.09

Qu. Check AChE in SH-SY5Y spheroids (Homo sapiens) data and give log10(IC50) for CNC(=O)ON=C(C)SC [Methomyl] .
Ans. 0.81

Qu. State recorded log10(IC50) with AChE in SH-SY5Y spheroids (Homo sapiens), entry CCOP(=S)(Oc1cnc(C(C)(C)C)nc1)OC(C)C (stereo not drawn) [Tebupirimfos] , no comment.
Ans. 1.45

Qu. Check AChE in SH-SY5Y spheroids (Homo sapiens) data and give log10(IC50) for CCOP(=S)(OCC)Oc1ccc([N+](=O)[O-])cc1 [Parathion] .
Ans. 1.26

Qu. Fetch value of log10(IC50) on AChE in SH-SY5Y spheroids (Homo sapiens) for CCOC(=O)c1cn2nc(OP(=S)(OCC)OCC)cc2nc1C [Pyrazophos] .
Ans. 1.47

Qu. Look up and report log10(IC50), with AChE in SH-SY5Y spheroids (Homo sapiens) as system, for CS/C(C)=N\OC(=O)N(C)SN(C)C(=O)O/N=C(\C)SC [Thiodicarb]
Ans. 0.20

Qu. Tell me log10(IC50) of CNC(=O)O/N=C/C(C)(C)[S+](C)[O-] (stereo not drawn) [Aldicarb sulfoxide] when tested on AChE in SH-SY5Y spheroids (Homo sapiens).
Ans. -0.34

Qu. State recorded log10(IC50) with AChE in SH-SY5Y spheroids (Homo sapiens), entry CCOC(=O)C(SP(=S)(OC)OC)c1ccccc1 (stereo not drawn) [Phenthoate] , no comment.
Ans. 0.00

Qu. Check AChE in SH-SY5Y spheroids (Homo sapiens) data and give log10(IC50) for O=C(O)/C=C/C(=O)O.O=C1c2ccccc2C(=O)N1CCc1noc(-c2ccc(CN3CCCCCC3)s2)n1 [PharmaGSID_48172] .
Ans. 1.24

Qu. System AChE in SH-SY5Y spheroids (Homo sapiens). Read-out log10(IC50). Item CCOP(=S)(OCC)SCSP(=S)(OCC)OCC [Ethion] . Report value.
Ans. 1.50

Qu. Recall the reported log10(IC50) of O=C(c1ccc(OCCN2CCCCC2)cc1)c1c(-c2ccc(O)cc2)sc2cc(O)ccc12 [Raloxifene hydrochloride, reference compound] when tested on AChE in SH-SY5Y spheroids (Homo sapiens).
Ans. 0.01

Qu. Give reported log10(IC50) for C=CC[N+]1([C@H]2C[C@H]3[C@@H]4CC[C@H]5C[C@H](OC(C)=O)[C@@H](N6CCCCC6)C[C@]5(C)[C@H]4CC[C@]3(C)[C@H]2OC(=O)CC)CCCCC1 [Rapacuronium bromide, reference compound] (AChE in SH-SY5Y spheroids (Homo sapiens))
Ans. 0.92

Qu. Please tell me the measured log10(IC50) for CN1C[C@H](CNC(=O)OCc2ccccc2)C[C@@H]2c3cccc4c3c(cn4C)C[C@H]21 [Metergoline, reference compound] ; system: AChE in SH-SY5Y spheroids (Homo sapiens).
Ans. 0.24

Qu. Provide log10(IC50), system AChE in SH-SY5Y spheroids (Homo sapiens), entry CNC(=O)Oc1ccccc1C(C)C [Isoprocarb]
Ans. 0.74

Qu. State measured log10(IC50) of the molecule CCOP(=S)(OCC)SCSc1ccc(Cl)cc1 [Carbophenothion] with AChE in SH-SY5Y spheroids (Homo sapiens).
Ans. 1.45
